Experiment: Single-dose pharmacokinetics in healthy volunteers under fasting and fed (high-fat breakfast) conditions, plasma concentrations by HPLC-MS, non-compartmental analysis
Assay type: in vivo, human
Experimental Context: female, human, plasma, oral, only CYP2C19*1/*1 subjects, Fast, women, mean ± SD
Measured Endpoint: half-life (h)

Molecule	Assay Value
COc1ccnc(C[S+]([O-])c2nc3ccc(OC(F)F)cc3[nH]2)c1OC (stereo not drawn)	1.1
COCCCOc1ccnc(C[S+]([O-])c2nc3ccccc3[nH]2)c1C (stereo not drawn)	1.1
COc1ccc2[nH]c([S+]([O-])Cc3ncc(C)c(OC)c3C)nc2c1 (stereo not drawn)	1

###

Experiment: Single-dose pharmacokinetics in healthy volunteers under fasting and fed (high-fat breakfast) conditions, plasma concentrations by HPLC-MS, non-compartmental analysis
Assay type: in vivo, human
Experimental Context: both sexes, human, plasma, po, Fast, all subjects, single oral dose, mean ± SD; read-out: Cmax
Measured Endpoint: Cmax (ng/mL)

(P) COc1ccnc(C[S+]([O-])c2nc3ccc(OC(F)F)cc3[nH]2)c1OC (stereo not drawn) [Pantoprazole, pantoprazole]
(Q) COCCCOc1ccnc(C[S+]([O-])c2nc3ccccc3[nH]2)c1C (stereo not drawn) [Rabeprazole, rabeprazole]
(R) COc1ccc2[nH]c([S+]([O-])Cc3ncc(C)c(OC)c3C)nc2c1 (stereo not drawn) [Omeprazole, omeprazole]
Inquiry: Quick one: which order do the items above go in by Cmax, smallest to largest? List the labels according to the requested ordering.
Reply text: Q, R, P

###

Experiment: Single-dose pharmacokinetics in healthy volunteers under fasting and fed (high-fat breakfast) conditions, plasma concentrations by HPLC-MS, non-compartmental analysis
Format: in vivo, human
Experimental Context: both sexes, human, plasma, oral, only CYP2C19*1/*1 subjects, Fed, men and women, mean ± SD
Measured Endpoint: half-life (h)

Compound	half-life (h)
COc1ccnc(C[S+]([O-])c2nc3ccc(OC(F)F)cc3[nH]2)c1OC (stereo not drawn)	1.2

(I) COc1ccc2[nH]c([S+]([O-])Cc3ncc(C)c(OC)c3C)nc2c1 (stereo not drawn)
(II) COCCCOc1ccnc(C[S+]([O-])c2nc3ccccc3[nH]2)c1C (stereo not drawn)
Inquiry: Between item I and item II , which reported half-life is smaller? Indicate your choice by writing its label.
Reply text: I

###

Experiment: Single-dose pharmacokinetics in healthy volunteers under fasting and fed (high-fat breakfast) conditions, plasma concentrations by HPLC-MS, non-compartmental analysis
Format: in vivo, human
Experimental Context: female, human, plasma, oral, only CYP2C19*1/*1 subjects, Fed, women, mean ± SD
Measured Endpoint: AUC(0-inf) (ng·h/mL)

Compound	AUC(0-inf) [ng·h/mL]
COCCCOc1ccnc(C[S+]([O-])c2nc3ccccc3[nH]2)c1C (stereo not drawn)	944

(1) COc1ccnc(C[S+]([O-])c2nc3ccc(OC(F)F)cc3[nH]2)c1OC (stereo not drawn)
(2) COc1ccc2[nH]c([S+]([O-])Cc3ncc(C)c(OC)c3C)nc2c1 (stereo not drawn)
Inquiry: Which is greater in AUC(0-inf), the first item 1 or the second item 2 ? Indicate your choice by writing its label.
Reply text: 1

###

Experiment: Single-dose pharmacokinetics in healthy volunteers under fasting and fed (high-fat breakfast) conditions, plasma concentrations by HPLC-MS, non-compartmental analysis
Type: in vivo, human
Experimental Context: female, human, plasma, po, Fast, women, single oral dose, mean ± SD; read-out: Tmax
Measured Endpoint: Tmax (h)

(1) COc1ccc2[nH]c([S+]([O-])Cc3ncc(C)c(OC)c3C)nc2c1 (stereo not drawn)
(2) COCCCOc1ccnc(C[S+]([O-])c2nc3ccccc3[nH]2)c1C (stereo not drawn)
Inquiry: Between item 1 and item 2 , which reported Tmax is smaller? Indicate your choice by writing its label.
Reply text: 1
(1: 1.9 h, 2: 3.7 h)

###

Experiment: Single-dose pharmacokinetics in healthy volunteers under fasting and fed (high-fat breakfast) conditions, plasma concentrations by HPLC-MS, non-compartmental analysis
Type: in vivo, human
Experimental Context: female, human, plasma, oral, only CYP2C19*1/*1 subjects, Fed, women, mean ± SD; read-out: Cmax
Measured Endpoint: Cmax (ng/mL)

Compound	Result Units	Cmax
COc1ccc2[nH]c([S+]([O-])Cc3ncc(C)c(OC)c3C)nc2c1 (stereo not drawn)	ng/mL	640

(a) COc1ccnc(C[S+]([O-])c2nc3ccc(OC(F)F)cc3[nH]2)c1OC (stereo not drawn)
(b) COCCCOc1ccnc(C[S+]([O-])c2nc3ccccc3[nH]2)c1C (stereo not drawn)
Inquiry: Which is greater in Cmax, the first item a or the second item b ? Indicate your choice by writing its label.
Reply text: a

###

Experiment: Single-dose pharmacokinetics in healthy volunteers under fasting and fed (high-fat breakfast) conditions, plasma concentrations by HPLC-MS, non-compartmental analysis
Assay type: in vivo, human
Experimental Context: male, human, plasma, oral, only CYP2C19*1/*1 subjects, Fed, men, mean ± SD; read-out: Tmax
Measured Endpoint: Tmax (h)

Compound	Tmax, h
COc1ccnc(C[S+]([O-])c2nc3ccc(OC(F)F)cc3[nH]2)c1OC (stereo not drawn)	5.3

(A) COCCCOc1ccnc(C[S+]([O-])c2nc3ccccc3[nH]2)c1C (stereo not drawn)
(B) COc1ccc2[nH]c([S+]([O-])Cc3ncc(C)c(OC)c3C)nc2c1 (stereo not drawn)
Inquiry: Which is greater in Tmax, the first item A or the second item B ? Indicate your choice by writing its label.
Reply text: A

###

Experiment: Single-dose pharmacokinetics in healthy volunteers under fasting and fed (high-fat breakfast) conditions, plasma concentrations by HPLC-MS, non-compartmental analysis
Assay type: in vivo, human
Experimental Context: both sexes, human, plasma, oral, only CYP2C19*1/*1 subjects, Fed, men and women, mean ± SD
Measured Endpoint: CL/F (L/h/kg)

Compound	Measured Endpoint	Result Units	Assay Value
COCCCOc1ccnc(C[S+]([O-])c2nc3ccccc3[nH]2)c1C (stereo not drawn)	CL/F	L/h/kg	0.38

(1) COc1ccc2[nH]c([S+]([O-])Cc3ncc(C)c(OC)c3C)nc2c1 (stereo not drawn)
(2) COc1ccnc(C[S+]([O-])c2nc3ccc(OC(F)F)cc3[nH]2)c1OC (stereo not drawn)
Inquiry: Which is greater in CL/F, the first item 1 or the second item 2 ? Indicate your choice by writing its label.
Reply text: 1

###

Experiment: Single-dose pharmacokinetics in healthy volunteers under fasting and fed (high-fat breakfast) conditions, plasma concentrations by HPLC-MS, non-compartmental analysis
Type: in vivo, human
Experimental Context: female, human, plasma, po, Fed, women, single oral dose, mean ± SD
Measured Endpoint: CL/F (mL/min/kg)

(a) COc1ccnc(C[S+]([O-])c2nc3ccc(OC(F)F)cc3[nH]2)c1OC (stereo not drawn)
(b) COc1ccc2[nH]c([S+]([O-])Cc3ncc(C)c(OC)c3C)nc2c1 (stereo not drawn)
(c) COCCCOc1ccnc(C[S+]([O-])c2nc3ccccc3[nH]2)c1C (stereo not drawn)
Inquiry: Highest to lowest CL/F: rank the entries shown above. List the labels according to the requested ordering.
Reply text: b, c, a
(b: 12.2 mL/min/kg, c: 6.33 mL/min/kg, a: 2.83 mL/min/kg)

###

Experiment: Single-dose pharmacokinetics in healthy volunteers under fasting and fed (high-fat breakfast) conditions, plasma concentrations by HPLC-MS, non-compartmental analysis
Assay type: in vivo, human
Experimental Context: female, human, plasma, oral, only CYP2C19*1/*1 subjects, Fast, women, mean ± SD
Measured Endpoint: CL/F (mL/min/kg)

Compound	Assay Value
COCCCOc1ccnc(C[S+]([O-])c2nc3ccccc3[nH]2)c1C (stereo not drawn)	6.83

(a) COc1ccc2[nH]c([S+]([O-])Cc3ncc(C)c(OC)c3C)nc2c1 (stereo not drawn)
(b) COc1ccnc(C[S+]([O-])c2nc3ccc(OC(F)F)cc3[nH]2)c1OC (stereo not drawn)
Inquiry: Between item a and item b , which reported CL/F is smaller? Indicate your choice by writing its label.
Reply text: b
(b: 1.83 mL/min/kg, a: 8.83 mL/min/kg)

###

Experiment: Single-dose pharmacokinetics in healthy volunteers under fasting and fed (high-fat breakfast) conditions, plasma concentrations by HPLC-MS, non-compartmental analysis
Assay type: in vivo, human
Experimental Context: male, human, plasma, oral, only CYP2C19*1/*1 subjects, Fast, men, mean ± SD
Measured Endpoint: half-life (h)

Compound	Result Units	half-life
COc1ccnc(C[S+]([O-])c2nc3ccc(OC(F)F)cc3[nH]2)c1OC (centres unmarked) [Pantoprazole, pantoprazole]	h	1.3
COCCCOc1ccnc(C[S+]([O-])c2nc3ccccc3[nH]2)c1C (centres unmarked) [Rabeprazole, rabeprazole]	h	1.5

###

Experiment: Single-dose pharmacokinetics in healthy volunteers under fasting and fed (high-fat breakfast) conditions, plasma concentrations by HPLC-MS, non-compartmental analysis
Type: in vivo, human
Experimental Context: male, human, plasma, oral, only CYP2C19*1/*1 subjects, Fast, men, mean ± SD
Measured Endpoint: Vd/F (L/kg)

Molecule	Vd/F [L/kg]
COCCCOc1ccnc(C[S+]([O-])c2nc3ccccc3[nH]2)c1C (stereo not drawn)	0.59

(A) COc1ccc2[nH]c([S+]([O-])Cc3ncc(C)c(OC)c3C)nc2c1 (stereo not drawn)
(B) COc1ccnc(C[S+]([O-])c2nc3ccc(OC(F)F)cc3[nH]2)c1OC (stereo not drawn)
Inquiry: Between item A and item B , which reported Vd/F is smaller? Indicate your choice by writing its label.
Reply text: B
(B: 0.2 L/kg, A: 0.68 L/kg)
